Assay System: human CD33 variant Y49H (human, UniProt P20138 18-364)
Sequence (P20138 18-364 Y49H limits assumed): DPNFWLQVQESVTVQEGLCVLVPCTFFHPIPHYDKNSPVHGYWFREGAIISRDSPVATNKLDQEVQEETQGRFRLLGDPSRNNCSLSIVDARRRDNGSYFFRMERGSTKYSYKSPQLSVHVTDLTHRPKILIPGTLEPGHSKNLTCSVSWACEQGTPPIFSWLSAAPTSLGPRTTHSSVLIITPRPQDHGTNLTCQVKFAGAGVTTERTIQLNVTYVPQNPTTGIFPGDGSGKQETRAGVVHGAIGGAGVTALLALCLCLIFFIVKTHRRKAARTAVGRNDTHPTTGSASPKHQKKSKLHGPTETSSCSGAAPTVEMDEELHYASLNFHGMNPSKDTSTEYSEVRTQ
Method Summary: flow cytometry, IgG on cells expressing the mutant
Readout Name: Mean % WT Binding

{"columns": ["Binder", "Result"],
 "data": [
  ["Refmab #1 (antibody, human IgG1, V domains shown, Tested in IgG format; human IgG1 (Absolute Antibody hP67.6, Cat. No. Ab00283-10.0); also called hP67.6) VH: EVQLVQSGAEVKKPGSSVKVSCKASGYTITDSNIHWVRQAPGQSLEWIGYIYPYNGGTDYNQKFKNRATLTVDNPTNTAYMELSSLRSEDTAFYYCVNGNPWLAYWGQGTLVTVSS VL: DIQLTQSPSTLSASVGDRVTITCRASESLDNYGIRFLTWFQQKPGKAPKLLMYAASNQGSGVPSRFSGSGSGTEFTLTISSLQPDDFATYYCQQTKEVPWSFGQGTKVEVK", "89.1 % of WT"],
  ["Refmab #4 (antibody, human IgG1, V domains shown, Tested in IgG format; human IgG1 Fc silent (PG-LALA)) VH: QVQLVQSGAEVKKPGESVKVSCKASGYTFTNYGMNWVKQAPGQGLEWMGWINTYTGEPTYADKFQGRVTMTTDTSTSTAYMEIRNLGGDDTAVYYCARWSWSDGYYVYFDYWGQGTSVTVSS VL: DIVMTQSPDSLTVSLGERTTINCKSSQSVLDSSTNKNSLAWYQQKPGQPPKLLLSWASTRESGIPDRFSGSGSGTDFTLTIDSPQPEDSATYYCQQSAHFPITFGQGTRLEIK", "95.1 % of WT"],
  ["Refmab #2 (antibody, human IgG1, V domains shown, Tested in IgG format; human IgG1 Fc silent (PG-LALA)) VH: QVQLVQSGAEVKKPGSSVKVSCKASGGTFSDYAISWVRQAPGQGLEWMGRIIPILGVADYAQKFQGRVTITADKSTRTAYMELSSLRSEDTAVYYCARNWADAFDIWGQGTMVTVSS VL: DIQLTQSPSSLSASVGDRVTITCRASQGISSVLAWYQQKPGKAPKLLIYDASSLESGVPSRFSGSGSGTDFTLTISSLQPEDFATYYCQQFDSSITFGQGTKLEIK", "17.2 % of WT"]
]}

Next binder, please.
Lookup: Read off the recorded Mean % WT Binding for Refmab #3 (antibody, human IgG1, V domains shown, Tested in IgG format; human IgG1 Fc silent (PG-LALA)) VH: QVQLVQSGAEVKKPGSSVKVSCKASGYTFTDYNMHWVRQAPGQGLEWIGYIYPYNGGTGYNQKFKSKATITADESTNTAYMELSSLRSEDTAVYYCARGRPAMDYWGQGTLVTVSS VL: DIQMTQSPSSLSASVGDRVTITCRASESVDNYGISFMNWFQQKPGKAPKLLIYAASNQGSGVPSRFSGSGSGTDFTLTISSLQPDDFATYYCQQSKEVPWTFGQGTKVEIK
Found: 92.1 % of WT
